target: Human recombinant MMP-13 (Homo sapiens); construct: made in house; host or cells: baculovirus / insect cells; assay: In vitro MMP inhibition, IC50 determination (fluorogenic substrate I); assay type: biochemical; settings: value outside parenthesis
Category scheme (IC50): lower bin: < 4 nM; middle bin: ≥ 4 nM and < 10 nM; upper bin: ≥ 10 nM

| molecule | assigned class |
| --- | --- |
| Cc1cc(-c2cccc(CCCOc3ccc(S(=O)(=O)C4(C(=O)NO)CCOCC4)cc3)c2)ccc1Cl [Example 166] | upper bin |
| O=C(NO)C1(S(=O)(=O)c2ccc(OCCCc3cccc(-c4ccccc4Cl)c3)cc2)CCOCC1 [Example 162] | upper bin |
| CC(=O)NC(C)(C)CCOc1ccc(S(=O)(=O)C2(C(=O)NO)CCN(C3CC3)CC2)cc1 [Example 221] | upper bin |
| COCCN1CCC(C(=O)NO)(S(=O)(=O)c2ccc(OCCCn3nc(C(F)(F)F)cc3C(F)(F)F)cc2)CC1 [Example 253] | upper bin |
| COCCN1CCC(C(=O)NO)(S(=O)(=O)c2ccc(OCCCn3ncc(-c4ccc(OC)cc4)c3C(F)(F)F)cc2)CC1 [Example 202] | upper bin |
| O=C(NO)C1(S(=O)(=O)c2ccc(OCCCc3nc(-c4cc(C(F)(F)F)cc(C(F)(F)F)c4)no3)cc2)CCOCC1 [Example 216] | upper bin |
| O=C(NO)C1(S(=O)(=O)c2ccc(OCCCc3cccc(-c4ccccn4)c3)cc2)CCOCC1 [Example 153] | middle bin |
| O=C(NO)C1(S(=O)(=O)c2ccc(OCCCc3cccc(-c4cccnc4)c3)cc2)CCOCC1 [Example 150] | lower bin |
| O=C(NO)C1(S(=O)(=O)c2ccc(OCCCc3nc(-c4ccc(C(F)(F)F)cc4)no3)cc2)CCOCC1 [Example 239] | lower bin |
| CC(C)Oc1ccc(-c2nnc(CCCOc3ccc(S(=O)(=O)C4(C(=O)NO)CCOCC4)cc3)o2)cc1 [Example 209] | lower bin |
| COCCN1CCC(C(=O)NO)(S(=O)(=O)c2ccc(OCCCc3nnc(-c4ccccc4C(F)(F)F)o3)cc2)CC1 [Example 178] | middle bin |
| CC(C)c1ccc(-c2nnc(CCCOc3ccc(S(=O)(=O)C4(C(=O)NO)CCOCC4)cc3)o2)cc1 [Example 247] | lower bin |
| COc1ccc(C(=O)C(C#N)CCOc2ccc(S(=O)(=O)C3(C(=O)NO)CCOCC3)cc2)cc1 (centres unmarked) [Example 176] | middle bin |
| CC(C)C[C@@H]1C(=O)N(CCCOc2ccc(S(=O)(=O)C3(C(=O)NO)CCOCC3)cc2)C(=O)N1c1ccccc1 [Example 105] | middle bin |
| CN(C(=O)CCCOc1ccc(S(=O)(=O)C2(C(=O)NO)CCOCC2)cc1)c1ccc(OC(F)(F)F)cc1 [Example 249] | middle bin |
| CC(CCOc1ccc(S(=O)(=O)C2(C(=O)NO)CCOCC2)cc1)C(=O)c1cccs1 (centres unmarked) [Example 276] | lower bin |
| CC(C)c1ccc(-c2cccc(CCOc3ccc(S(=O)(=O)C4(C(=O)NO)CCOCC4)cc3)c2)cc1 [Example 109] | upper bin |
| O=C(NO)C1(S(=O)(=O)c2ccc(OCCCS(=O)(=O)N3CCC(Oc4ccc(C(F)(F)F)cc4)CC3)cc2)CCOCC1 [Example 279] | middle bin |
| CCN1CCC(C(=O)NO)(S(=O)(=O)c2ccc(OCCCc3cccc(-c4ccc(F)cc4)c3)cc2)CC1 [Example 138] | lower bin |
| O=C(NO)C1(S(=O)(=O)c2ccc(OCCCc3cccc(-c4cccc(F)c4)c3)cc2)CCOCC1 [Example 161] | lower bin |
| O=C(NO)C1(S(=O)(=O)c2ccc(OCCCc3nc(-c4ccc([N+](=O)[O-])cc4)no3)cc2)CCOCC1 [Example 212] | lower bin |
| COCCN1CCC(C(=O)NO)(S(=O)(=O)c2ccc(OCCCc3nc(-c4ccc(C5(c6ccccc6)CC5)cc4)no3)cc2)CC1 [Example 185] | upper bin |
| Cc1ccccc1-c1cccc(CCOc2ccc(S(=O)(=O)C3(C(=O)NO)CCOCC3)cc2)c1 [Example 116] | upper bin |
| O=C1CN(c2ccccc2Cl)C(=O)N1CCCOc1ccc(S(=O)(=O)C2(C(=O)NO)CCOCC2)cc1 [Example 224] | middle bin |
| O=C(NO)C1(S(=O)(=O)c2ccc(OCc3nc(-c4ccc(OC(F)(F)F)cc4)no3)cc2)CCOCC1 [Example 132] | lower bin |
| O=C(NO)C1(S(=O)(=O)c2ccc(OCCCc3cccc(-c4ccc(Cl)cc4Cl)c3)cc2)CCOCC1 [Example 171] | upper bin |
| COCCN1CCC(C(=O)NO)(S(=O)(=O)c2ccc(OCCCc3nc(-c4ccc(CC(C)C)cc4)no3)cc2)CC1 [Example 175] | lower bin |
| NC(=O)c1cccc(-c2noc(CCCOc3ccc(S(=O)(=O)C4(C(=O)NO)CCN(C5CC5)CC4)cc3)n2)c1 [Example 131] | middle bin |
